- assayTarget: G9a (Homo sapiens)
- Sequence (Q96KQ7 whole entry): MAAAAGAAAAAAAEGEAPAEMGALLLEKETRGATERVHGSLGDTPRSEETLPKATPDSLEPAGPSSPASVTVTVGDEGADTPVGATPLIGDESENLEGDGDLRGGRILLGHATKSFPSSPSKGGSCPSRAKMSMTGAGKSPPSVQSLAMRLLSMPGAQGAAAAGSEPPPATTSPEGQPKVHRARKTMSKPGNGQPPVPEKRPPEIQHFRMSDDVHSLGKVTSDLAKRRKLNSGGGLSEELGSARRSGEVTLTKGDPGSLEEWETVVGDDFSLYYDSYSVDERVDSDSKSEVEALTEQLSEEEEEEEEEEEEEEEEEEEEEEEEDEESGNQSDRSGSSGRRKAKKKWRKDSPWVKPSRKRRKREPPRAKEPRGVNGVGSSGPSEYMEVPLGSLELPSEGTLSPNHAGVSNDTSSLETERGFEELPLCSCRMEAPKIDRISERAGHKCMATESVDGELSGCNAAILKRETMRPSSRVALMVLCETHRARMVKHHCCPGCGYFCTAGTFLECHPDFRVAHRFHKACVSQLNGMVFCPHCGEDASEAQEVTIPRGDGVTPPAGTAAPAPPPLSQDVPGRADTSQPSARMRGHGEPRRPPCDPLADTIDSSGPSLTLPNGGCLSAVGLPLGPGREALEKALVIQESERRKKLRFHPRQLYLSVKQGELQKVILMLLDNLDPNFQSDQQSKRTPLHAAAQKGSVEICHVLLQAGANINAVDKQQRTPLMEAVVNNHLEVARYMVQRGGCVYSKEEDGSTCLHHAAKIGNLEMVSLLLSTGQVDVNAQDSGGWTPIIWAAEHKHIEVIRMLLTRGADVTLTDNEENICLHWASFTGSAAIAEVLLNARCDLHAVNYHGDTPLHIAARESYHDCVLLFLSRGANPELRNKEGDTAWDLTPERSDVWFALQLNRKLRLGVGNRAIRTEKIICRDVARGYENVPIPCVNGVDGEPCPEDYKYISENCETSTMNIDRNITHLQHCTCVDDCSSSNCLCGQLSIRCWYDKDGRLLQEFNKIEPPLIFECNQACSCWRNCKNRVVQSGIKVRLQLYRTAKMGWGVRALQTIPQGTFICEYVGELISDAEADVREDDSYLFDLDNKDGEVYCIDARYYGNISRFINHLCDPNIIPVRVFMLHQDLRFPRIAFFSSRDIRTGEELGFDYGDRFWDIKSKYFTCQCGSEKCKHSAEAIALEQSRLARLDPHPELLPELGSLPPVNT
- experimentalConditions: read-out: G9a IC50; SPA, 5 nM G9a, H3 1-25 peptide 0.8 μM, 3H-SAM 8 μM
pIC50: −log10 of the molar value.
Catalogue of pIC50 values
readoutKind: pIC50

>>> print(df.to_string())
                                   compound         assaytarget  readoutkind  valuequalifier  measuredvalue
0  COc1cc2nc(N3CCN(C)CC3)nc(NC3CCN(Cc4ccc(C)cc4)CC3)c2cc1OC  G9a (Homo sapiens)        pIC50               =           7.11
1  COc1cc2nc(N3CCN(C)CC3)nc(NC3CCN(Cc4ccccc4F)CC3)c2cc1OC  G9a (Homo sapiens)        pIC50               =           6.94
2  COc1cc2nc(N3CCN(C)CC3)nc(NC3CCN(Cc4ccc(F)cc4)CC3)c2cc1OC  G9a (Homo sapiens)        pIC50               =           6.95
3  COc1cc2c(NC3CCN(Cc4ccccc4)CC3)nc(N3CCN(C)CC3)nc2cc1OCCCSC  G9a (Homo sapiens)        pIC50               =           6.65
4  COc1cc2nc(N3CCOCC3)nc(NC3CCN(Cc4ccccc4)C3)c2cc1OC (stereo not shown)  G9a (Homo sapiens)        pIC50               <           6.00
5  COc1cc2nc(N3CCN(C)CC3)cc(NC3CCN(Cc4ccccc4)CC3)c2cc1OC  G9a (Homo sapiens)        pIC50               =           7.68
6  COc1cc2nc(N3CCCCCC3)nc(NC3CCN(Cc4ccccc4)CC3)c2cc1OC  G9a (Homo sapiens)        pIC50               =           6.48
7  COc1cc2nc(NCCCN(C)C)nc(NC3CCN(Cc4ccccc4)CC3)c2cc1OC  G9a (Homo sapiens)        pIC50               =           6.91
8  COc1cc2nc(N3CCN(C)CC3)nc(NC3CCN(Cc4ccccc4C)CC3)c2cc1OC  G9a (Homo sapiens)        pIC50               =           6.77
9  COc1cc2nc(N3CCN(C)CC3)nc(NC3CCCCC3)c2cc1OC  G9a (Homo sapiens)        pIC50               =           5.19

----------
Catalogue of IC50 values
- assayTarget: G9a (Homo sapiens)
- experimentalConditions: read-out: G9a IC50; SPA, 5 nM G9a, H3 1-25 peptide 0.8 μM, 3H-SAM 8 μM
readoutKind: IC50 (µM)

>>> print(df.to_string())
                                    molecule         assaytarget  valuequalifier  measuredvalue
 0  COc1cc2c(NC3CCN(C)CC3)nc(NCCCN(C)C)nc2cc1OCc1ccccc1  G9a (Homo sapiens)               >              1
 1  COc1cc2cc(N3CCC(OC)CC3)nc(NC3CCN(Cc4ccccc4)CC3)c2cc1OC  G9a (Homo sapiens)               >             50
 2  COc1cc2nc(N3CCN(c4ccccn4)CC3)nc(NC3CCN(C(=O)c4ccccc4)CC3)c2cc1OC  G9a (Homo sapiens)               >             10
 3   COc1cc2nc(N3CCCCC3)nc(Nc3ccccc3)c2cc1OC  G9a (Homo sapiens)               >             10
 4  COc1cc2nc(N3CCC(OC)CC3)nc(NC3CCN(Cc4ccccc4)CC3)c2cc1OC  G9a (Homo sapiens)               =          0.576
 5  COc1cc2c(NC3CCN(Cc4ccccc4)CC3)nc(N3CCN(C)CC3)nc2cc1OCCC(C)C  G9a (Homo sapiens)               =           5.34
 6  COc1cc2c(NC3CCN(C(C)C)CC3)nc(N3CCN(C)CC3)nc2cc1OCCC(C)C  G9a (Homo sapiens)               =           2.03
 7  CCCCCCOc1cc2nc(N3CCN(C)CC3)nc(NC3CCN(Cc4ccccc4)CC3)c2cc1OC  G9a (Homo sapiens)               =          0.114
 8  COc1cc2c(NC3CCN(Cc4ccccc4)CC3)nc(N3CCN(C)CC3)nc2cc1OCCCCSC  G9a (Homo sapiens)               =          0.575
 9  COc1cc2nc(N3CCN(C)CC3)nc(NC3CCN(Cc4cccc(F)c4)CC3)c2cc1OC  G9a (Homo sapiens)               =          0.132
10  COc1cc2nc(N3CCCCC3)nc(NC3CCN(C)CC3)c2cc1OC  G9a (Homo sapiens)               =          0.591
11  COc1cc2nc(N3CCC(OC)CC3)cc(NC3CCN(Cc4ccccc4)CC3)c2cc1OC  G9a (Homo sapiens)               =          0.119
12  COc1cc2nc(N3CCCN(C)CC3)nc(NC3CCN(C4CCCCC4)CC3)c2cc1OC  G9a (Homo sapiens)               =          0.055
13  COc1cc2nc(N3CCN(C)CC3)nc(NC3CCN(C(C)C)CC3)c2cc1OC  G9a (Homo sapiens)               =          0.123
14  COc1cc2nc(N3CCN(C)CC3)nc(Nc3ccccc3)c2cc1OC  G9a (Homo sapiens)               >             10
15  COc1cc2c(NC3CCN(Cc4ccccc4)CC3)nc(N3CCCCC3)nc2cc1OCc1ccccc1  G9a (Homo sapiens)               >             50
16  COc1cccc(CN2CCC(Nc3nc(N4CCN(C)CC4)nc4cc(OC)c(OC)cc34)CC2)c1  G9a (Homo sapiens)               =          0.128
17  COc1cc2nc(N3CC(C)CC(C)C3)nc(Nc3ccccc3)c2cc1OC (stereo not drawn)  G9a (Homo sapiens)               >             10
18  CCCCCCCCOc1cc2nc(N3CCN(C)CC3)nc(NC3CCN(Cc4ccccc4)CC3)c2cc1OC  G9a (Homo sapiens)               =           1.02
19  CCCCCCOc1cc2nc(NCCCN(C)C)nc(NC3CCN(Cc4ccccc4)CC3)c2cc1OC  G9a (Homo sapiens)               =          0.039
20  COc1cc2nc(N3CCCCC3)nc(NC3CCN(C(=O)c4ccccc4)CC3)c2cc1OC  G9a (Homo sapiens)               >             10
21  COc1cc2nc(N3CCC(c4ccccc4)CC3)nc(NC3CCN(Cc4ccccc4)CC3)c2cc1OC  G9a (Homo sapiens)               >             10
